- experimental.target: Human immunodeficiency virus type 1 integrase (Human immunodeficiency virus 1, UniProt Q7ZJM1)
- Sequence (Q7ZJM1 whole entry): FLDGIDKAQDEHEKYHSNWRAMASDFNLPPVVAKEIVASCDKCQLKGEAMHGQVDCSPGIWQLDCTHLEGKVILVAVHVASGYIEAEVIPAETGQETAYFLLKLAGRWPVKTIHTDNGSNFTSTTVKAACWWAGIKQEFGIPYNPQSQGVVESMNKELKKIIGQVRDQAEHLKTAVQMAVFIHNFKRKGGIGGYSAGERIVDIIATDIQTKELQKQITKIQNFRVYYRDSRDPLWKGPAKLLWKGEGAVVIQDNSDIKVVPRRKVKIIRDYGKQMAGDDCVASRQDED
- assay.details: Inhibition of HIV1 integrase 3'-end processing activity
pIC50 overview
Scale: pIC50 equals -log10([C]), with [C] in mol/L.

- Cc1ccc(-n2c(SCC(=O)NNC(=O)c3ccccc3O)nnc2-c2ccccc2O)cc1: 5.30

Would you kindly look at the next entry?
Request: Can you look up the measured pIC50 of `O=C(CSc1nnc(-c2ccc(Cl)cc2)n1-c1ccccc1)NNC(=O)c1ccccc1O` for me?
Result: 4.96

----------
Activity overview
- System: MDA-MB-435
- assay.details: Cytotoxicity against human MDA-MB-435 cells at 20 uM
- Type: cell-based
- condition.summary: mda-mb-435, 20 µM
Enter your answer as a number in %; do not include the unit.

For orientation, consider the following solved cases.
• Cc1cc(C)nc(SCc2nnc(SCC(=O)NNC(=O)c3ccccc3O)n2-c2ccccc2)n1 = 3
• O=C(CSc1nnc(Cc2ccccc2)n1C1CCCCC1)NNC(=O)c1ccccc1O = 5

Would you kindly look at the next entry?
Request: Can you look up the measured Activity of `O=C(CSc1nnc(-c2ccncc2)n1-c1ccc(F)cc1)NNC(=O)c1ccccc1O` for me?
Result: 14

----------
IC50 overview
- experimental.target: Human immunodeficiency virus type 1 integrase (Human immunodeficiency virus 1, UniProt Q7ZJM1)
- assay.details: Inhibition of HIV1 integrase strand transfer activity
Enter your answer as a number in µM; do not include the unit.

• O=C(CSc1nnc(-c2ccccc2O)n1Cc1ccccc1)NNC(=O)c1ccccc1O = 9
• O=C(CSc1nnnn1-c1ccccc1)NNC(=O)c1ccc(O)cc1O = 61
• O=C(CSc1nnc(-c2ccccc2)n1Cc1ccccc1)NNC(=O)c1ccccc1O = 9
• Cc1ccc(-n2c(SCC(=O)NNC(=O)c3ccccc3O)nnc2-c2ccccc2)cc1 = 12

Would you kindly look at the next entry?
Request: Can you look up the measured IC50 of `Cc1cc(C)nc(SCc2nnc(SCC(=O)NNC(=O)c3ccccc3O)n2-c2ccccc2)n1` for me?
Result: 27

----------
- System: HCT-116
- assay.details: Cytotoxicity against human HCT116 cells at 20 uM
- Assay type: cell-based
- condition.summary: hct-116, 20 µM
Sorting guide: entries reporting Activity beneath 20% go in the rule met pile, the rest go in the rule not met pile.

- Cc1ccc(-n2c(SCC(=O)NNC(=O)c3ccccc3O)nnc2-c2ccccc2O)cc1: rule not met
- COc1ccc(-c2nnc(SCC(=O)NNC(=O)c3ccccc3O)n2-c2ccccc2)cc1OC: rule not met
- Cc1cc(C)nc(SCc2nnc(SCC(=O)NNC(=O)c3ccccc3O)n2-c2ccccc2)n1: rule met
- COc1ccc(-n2c(Cc3ccccc3)nnc2SCC(=O)NNC(=O)c2ccccc2O)cc1: rule met
- O=C(CSc1nnc(Cc2ccccc2)n1-c1cccc(Cl)c1)NNC(=O)c1ccccc1O: rule met
- O=C(CSc1nnc(-c2ccc(Cl)cc2)n1-c1ccccc1)NNC(=O)c1ccccc1O: rule not met

Request: Please determine if `O=C(CSc1nnc(Cc2ccccc2)n1C1CCCCC1)NNC(=O)c1ccccc1O` is below 20% in terms of Activity.
Result: rule met

Request: Please determine if `O=C(CSc1nnc(-c2ccncc2)n1-c1ccccc1)N/N=C/c1ccccc1O` is below 20% in terms of Activity.
Result: rule not met

Request: Please determine if `O=C(CSc1nnc(-c2ccncc2)n1-c1ccc(F)cc1)NNC(=O)c1ccccc1O` is below 20% in terms of Activity.
Result: rule not met

Value source: ChEMBL document CHEMBL1140576
